Kindly supply the reported CC50 at 48 h values for the records listed here.
Assay: Cytotoxicity against human HG23 cells after 48 hrs
Format: cell-based
Conditions: read-out: TD50

Worked set:
{"Line notation": "O=S1(=O)N(CCN2CCOCC2)CCN1Cc1cccc(Oc2ccccc2)c1", "Test result": "95.4 µM"}
{"Line notation": "O=C(c1ccc(Cl)cc1)N1CCN(CCN2CCN(Cc3cccc(Oc4ccccc4)c3)S2(=O)=O)CC1", "Test result": "35.3 µM"}
{"Line notation": "CCOC(=O)N1CCN(CCN2CCN(Cc3cccc(Oc4ccccc4)c3)S2(=O)=O)CC1", "Test result": "13.5 µM"}

Next molecule, CC50 at 48 h to be filled in.
Using known records, supply CC50 at 48 h for `CCN1CCN(C(=O)CN2CCN(Cc3cccc(Oc4ccccc4)c3)S2(=O)=O)CC1` 120 µM
